Experimental protocol: NCI Yeast Anticancer Drug Screen. Data for the mec2-1 strain (AID 157)
Experimental setup: S. cerevisiae mec2-1 strain, at 50.0 µM
The panel holds about 79,000 compounds, 15% with a hit somewhere; the sample as a whole holds those more often. Active and inactive are the calls of the source. No stated cut-off is given here; in the data, active means growth inhibition above about 70%; inactive means the rest.
Your reply should match one of these outcome classes. True for active, False for inactive

Data request: Status in this test for CCCCCCCCCCCCCCCCCCOCC(O)CO (configuration not stated) ?
Data returned: False

Data request: State the result this test recorded for Nc1nc(N)c2nc3c4ccccc4c4ccccc4c3nc2n1 .
Data returned: False

Data request: How did this test come out for OC1(C2C=CC=C2)c2ccccc2C=Cc2ccccc21 ?
Data returned: False

Data request: State the result this test recorded for OC(C/C=C/c1ccccc1)(c1ccccc1)c1ccccc1 .
Data returned: True

Data request: # fetch the recorded call for c1ccc([P+](CCCCCCCC[P+](c2ccccc2)(c2ccccc2)c2ccccc2)(c2ccccc2)c2ccccc2)cc1 here
Data returned: True

Data request: Hey, what did the test say about O=C1OC(c2ccccc2)C(c2ccccc2)=C1c1ccccc1 (configuration not stated) ?
Data returned: False

Data request: Field: outcome | Entry: Cc1cc2c(C(C)C)c(O)c(O)c(C=Nc3ccccc3S)c2c(O)c1-c1c(C)cc2c(C(C)C)c(O)c(O)c(C=Nc3ccccc3S)c2c1O
Data returned: False
